experiment: Pharmacokinetic study of 157 (and metabolite endothal) in SD rats, iv and po; plasma, liver, brain; assay type: in vivo; conditions: female, SD, rat, in vivo, iv, 1.5 mg/kg, 157 iv 1.5 mg/kg; read-out: mean Cmax of 157 in plasma
parameter-measured: Cmax (ng/mL)
Kindly answer with a numeric value in ng/mL, unit omitted.

Form field: reported Cmax of CCCCCCCOC(=O)C1C2CCC(O2)C1C(=O)N1CCN(C)CC1 (stereo not shown)
115

###

test: Pharmacokinetic study of 100 (and metabolite endothal) in SD rats, iv; plasma, liver, brain; details: female, SD, rat, in vivo, iv, 1 mg/kg, Endothal liver concentration, 100 iv 1.0 mg/kg, SD rats, 2 hr, mean
parameter-measured: concentration at 2 h (ng/g)
Kindly answer with a numeric value in ng/g, unit omitted.

Form field: reported concentration at 2 h of O=C(O)C1C2CCC(O2)C1C(=O)O (stereo not shown) [Endothal]
1040
